The reported numbers originate from patent US20230116196A1.

- test_system: α1β2γ2 GABAA receptors (Homo sapiens, UniProt P14867+P18507+P47870)
- Construct: expressed in transfected cells; host or cells: LTK cells, stably transfected
- Sequence (P14867 28-456): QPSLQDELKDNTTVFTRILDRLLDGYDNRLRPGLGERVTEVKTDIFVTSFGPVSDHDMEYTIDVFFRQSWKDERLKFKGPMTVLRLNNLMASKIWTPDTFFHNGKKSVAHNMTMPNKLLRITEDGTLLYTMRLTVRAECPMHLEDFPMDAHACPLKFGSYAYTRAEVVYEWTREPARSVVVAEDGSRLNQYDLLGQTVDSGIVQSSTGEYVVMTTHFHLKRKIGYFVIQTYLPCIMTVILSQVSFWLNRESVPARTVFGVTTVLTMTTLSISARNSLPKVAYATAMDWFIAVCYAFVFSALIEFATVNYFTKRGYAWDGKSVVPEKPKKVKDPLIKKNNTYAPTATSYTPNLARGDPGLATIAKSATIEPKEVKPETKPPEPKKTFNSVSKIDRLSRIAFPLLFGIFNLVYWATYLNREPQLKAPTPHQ
- Sequence (P47870 25-512 limits assumed): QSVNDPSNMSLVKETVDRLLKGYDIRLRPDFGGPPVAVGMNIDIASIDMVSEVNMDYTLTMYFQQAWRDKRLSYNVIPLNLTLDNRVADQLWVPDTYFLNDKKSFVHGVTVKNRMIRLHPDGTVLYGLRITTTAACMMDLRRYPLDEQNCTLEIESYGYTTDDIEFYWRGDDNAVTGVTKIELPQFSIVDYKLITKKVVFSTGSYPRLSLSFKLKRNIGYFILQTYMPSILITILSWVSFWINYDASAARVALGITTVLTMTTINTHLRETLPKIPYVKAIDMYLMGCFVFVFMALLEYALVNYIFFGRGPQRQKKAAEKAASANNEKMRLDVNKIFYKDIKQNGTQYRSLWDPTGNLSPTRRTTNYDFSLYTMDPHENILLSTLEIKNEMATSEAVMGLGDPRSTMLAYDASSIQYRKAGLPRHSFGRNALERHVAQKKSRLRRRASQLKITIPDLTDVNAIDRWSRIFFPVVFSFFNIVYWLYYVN
- Sequence (P18507 40-475): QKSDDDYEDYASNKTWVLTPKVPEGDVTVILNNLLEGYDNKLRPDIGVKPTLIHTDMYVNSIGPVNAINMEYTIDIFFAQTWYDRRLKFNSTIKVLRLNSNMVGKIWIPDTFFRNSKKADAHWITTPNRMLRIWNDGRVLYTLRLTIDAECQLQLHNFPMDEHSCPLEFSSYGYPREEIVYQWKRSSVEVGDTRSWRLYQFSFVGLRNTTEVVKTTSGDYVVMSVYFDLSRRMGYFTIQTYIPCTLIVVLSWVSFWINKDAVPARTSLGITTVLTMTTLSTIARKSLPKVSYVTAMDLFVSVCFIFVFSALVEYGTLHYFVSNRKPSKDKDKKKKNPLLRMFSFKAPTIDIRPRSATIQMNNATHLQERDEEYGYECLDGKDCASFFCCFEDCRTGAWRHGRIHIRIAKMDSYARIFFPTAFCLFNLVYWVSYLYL
- test_details: Whole-cell patch clamp: potentiation of GABA EC20 currents at recombinant α1β2γ2 GABAA receptors
- Assay type: cell-based
- condition_set: potentiation of current at GABA EC20 (2 μM); n = 3; read-out: EC50, α1β2γ2
quantity_measured: EC50 (nM)

structure	test_system	result_units	experimental_result
C[C@@]1(O)CC[C@@]2(C)[C@H](CC[C@@H]3[C@@H]2CC[C@]2(C)[C@@H](C(=O)Cn4nccn4)CC[C@@H]32)C1	α1β2γ2 GABAA receptors (Homo sapiens, UniProt P14867+P18507+P47870)	nM	61

###

- test_system: α1β2γ2 GABAA receptors (Homo sapiens, UniProt P14867+P18507+P47870)
- Construct: expressed in transfected cells; host or cells: LTK cells, stably transfected
- test_details: Whole-cell patch clamp: potentiation of GABA EC20 currents at recombinant α1β2γ2 GABAA receptors
- Type: cell-based
- Procedure: Cellular electrophysiology was used to measure the pharmacological properties of ALLO, ganaxolone and SGE-516 in heterologous cell systems. Compounds were tested for their ability to affect GABA mediated currents at a submaximal agonist dose (GABA EC20=2 μM). […] Whole-cell currents were measured with HEKA EPC-10 amplifiers using PatchMaster software. […]
pEC50: −log10 of the molar value.

structure	pEC50
CC(=O)[C@H]1CC[C@H]2[C@@H]3CC[C@H]4C[C@](C)(O)CC[C@]4(C)[C@H]3CC[C@]12C	6.60
